Please provide measured EC50 for the entries that follow.
- Test system: Plasmodium falciparum
- assay_comment: NOVARTIS: Inhibition of Plasmodium falciparum W2 (drug-resistant) proliferation in erythrocyte-based infection assay
- Assay type: functional, organism-based
- condition_info: Plasmodium falciparum, W2; read-out: EC50
One number for each entry, in nM.

INSERT INTO measurements (smiles_str, unit_abbreviation, experimental_value) VALUES
  ('Cc1nc2ccccc2c(=O)n1-c1ccc([N+](=O)[O-])cc1', 'nM', 896);

Continue with the next compound.
Look up EC50: Cc1cccc(NC(=O)CCCn2c(=O)c3cccn3c3ccccc32)c1C
906

---

- assay_comment: NOVARTIS: Cytotoxicity against human hepatocellular carcinoma cell line (Huh7)
- Format: toxicity, cell-based, Huh-7
- condition_info: Huh7 cells (hepatocellular carcinoma cell line)
Please provide measured CC50 for the entries that follow.

Lab note: each molecule below needs its CC50 filled in.
1. COc1ccc(OC)c(NC2=C(Cl)C(=O)N(c3ccc(C)c(Cl)c3)C2=O)c1
2. CCN(c1ccccc1)S(=O)(=O)c1ccc(F)c(C(=O)Nc2c(C)cccc2C)c1
3. CCc1c(C)nc(SCC(=O)NNC(C)=O)nc1O
4. CSc1nc(SC)c2c3c(sc2n1)CN(C)CC3
5. CCNC(=O)/C=C/c1ccc(C(C)(C)C)cc1

1. > 100 µM
2. > 100 µM
3. > 10 µM
4. > 100 µM
5. > 10 µM

---

- Test system: Plasmodium falciparum
- assay_comment: NOVARTIS: Inhibition of Plasmodium falciparum 3D7 (drug-susceptible) proliferation in erythrocyte-based infection assay
- Assay type: functional, organism-based
- condition_info: Plasmodium falciparum, 3D7
assay_endpoint: EC50

INSERT INTO results (molecule, experimental_value) VALUES
  ('CC1CCc2c(sc(NC(=O)c3ccccc3F)c2C(=O)NCc2ccccc2)C1 (stereo unspecified)', '> 699 nM');

Lab note: each molecule below needs its EC50 filled in.
1. CCOC(=O)c1c(NC(=O)CCC(=O)OC)sc2c1CC(C)(C)SC2
2. CC1=NOC(=O)C1=Cc1ccc(-c2ccc([N+](=O)[O-])cc2)o1
3. Cc1ccc(NC(=O)N2CCN(C(=O)c3nc(-c4ccccc4)nc(C)c3C(=O)OC(C)C)CC2C)c(C)c1 (stereo unspecified)
4. CCOC(=O)c1sc(NC(=O)CSc2nnc(CNC(=O)c3ccco3)n2-c2ccc(F)cc2)c(C(=O)OCC)c1C
5. COC(=O)C1=CNC=C(C(=O)OC)C1c1cc(OC)c(OC)cc1OC

["> 650 nM", "> 12500 nM", "> 271 nM", "> 1250 nM", "> 1350 nM"]

---

- System: Plasmodium falciparum
- assay_comment: NOVARTIS: Inhibition of Plasmodium falciparum W2 (drug-resistant) proliferation in erythrocyte-based infection assay
- Type: functional, organism-based
- condition_info: Plasmodium falciparum, W2; read-out: EC50
Structures can show the parent of a compound that is named as a salt.
Please provide measured EC50 for the entries that follow.

Worked examples follow.
INSERT INTO measurements (molecule, experimental_value) VALUES
  ('Clc1cccc(-c2cn3ccnc3c(N3CCN(c4ccncc4)CC3)n2)c1', '> 0.0526 µM'),
  ('O=C(CN1CCCC1)Nc1c2c(nc3c1CCC3)CCC2', '> 0.462 µM'),
  ('CC1(C)N=C(N)N=C(N)N1c1ccc(Cl)cc1 [CHLORCYCLOGUANIL HYDROCHLORIDE]', '0.884 µM'),
  ('CC(=O)c1c(C)oc2ccc(NS(=O)(=O)c3cccc(C(=O)O)c3)cc12', '> 0.515 µM');

Continue with the next molecule.
Look up EC50: COc1ccccc1NC(=O)CCN1CCCC(C)C1 (stereo not given)
> 0.598 µM

---

- assay_comment: NOVARTIS: Cytotoxicity against human hepatocellular carcinoma cell line (Huh7)
- Assay type: toxicity, cell-based, Huh-7
- condition_info: Huh7 cells (hepatocellular carcinoma cell line)
Please provide measured CC50 for the entries that follow.

Worked examples follow.
INSERT INTO assay_data (molecule, assay_endpoint, experimental_value) VALUES
  ('Cc1cc(C)cc(NC(=O)c2cc(-c3ccc(Cl)cc3)nc3ccccc23)c1', 'CC50', '> 10 µM'),
  ('COc1cccc(-c2cc(N=C(NCc3ccco3)SC)n[nH]2)c1', 'CC50', '70.4 µM'),
  ('COc1cc(C(=O)NC(c2ccccc2Cl)c2cc(Cl)c3cccnc3c2O)cc(OC)c1OC (centres undefined)', 'CC50', '> 100 µM'),
  ('CC(c1nc2ccccc2c(=O)n1-c1ccc(Br)cc1)N1CCN(S(=O)(=O)c2ccc3ccccc3c2)C(C)C1 (centres undefined)', 'CC50', '> 10 µM'),
  ('c1ccc(N=Nc2nnc(Nc3ccccc3)s2)cc1', 'CC50', '> 10 µM'),
  ('CC[C@@H]1CCC[C@H](C)CC[C@@H](O[C@@H]2O[C@@H](C)[C@@H](O)[C@@H](N)[C@H]2O)[C@H](CC)CCCNC1=O', 'CC50', '> 6.25 µM'),
  ('CCOC(=O)c1ccc2nc3c(nc2c1)C(=O)c1ccccc1C3=O', 'CC50', '0.512 µM'),
  ('CCCCNC(=O)c1nn(-c2ccc(OC)cc2)c(=O)c2ccccc12', 'CC50', '> 100 µM'),
  ('CC(=NNc1nc2ccccc2s1)c1ccc([N+](=O)[O-])cc1', 'CC50', '> 10 µM'),
  ('COc1cc(OC)cc(C(=O)NCC2Cc3cc(Cl)cc(-c4ccncc4)c3O2)c1 (centres undefined)', 'CC50', '44.1 µM');

Lab note: each molecule below needs its CC50 filled in.
1. COc1ccc(CCNc2nc(NCCCn3ccnc3)ncc2C(=O)NCC(C)C)cc1OC
2. Cc1cc(C)nc(/N=C(\N)Nc2ccccc2O)n1
3. COC(=O)c1c(S(=O)(=O)NCCN(C)C)sc2c1CCN(CC(C)c1ccccc1)C2 (centres undefined)
4. Cc1cc(N2CCC(C)CC2)nc2ccc(NC(=O)c3ccc([N+](=O)[O-])o3)cc12

1. > 6.78 µM
2. > 100 µM
3. > 10 µM
4. 21.9 µM

---

- Tested on: Plasmodium falciparum
- assay_comment: NOVARTIS: Inhibition of Plasmodium falciparum 3D7 (drug-susceptible) proliferation in erythrocyte-based infection assay
- Type: functional, organism-based
- condition_info: Plasmodium falciparum, 3D7
Binary label based on EC50 with cut-off 300 nM: below gives Yes, not below gives No.

INSERT INTO measurements (compound, tested_target, label_value) VALUES
  ('O=C(Nc1ccc(-c2nc3ccccc3[nH]2)cc1)c1ccc(Cl)c(Cl)c1', 'Plasmodium falciparum', 'No'),
  ('CCN(C(=O)CSc1nc(-c2ccc(C(C)C)cc2)no1)c1cccc(C)c1', 'Plasmodium falciparum', 'No'),
  ('Cc1c(NC(=S)N2CCOCC2)c(=O)n(-c2ccccc2)n1C', 'Plasmodium falciparum', 'No'),
  ('COc1cc(C(=O)OCCC2CCC[N+]3(C)CCCCC23)cc(OC)c1OC (centres undefined)', 'Plasmodium falciparum', 'No'),
  ('CCOC(=O)C1=C(CC)NC2=C(C(=O)CC(C)(C)C2)C1c1ccc(Cl)cc1Cl (centres undefined)', 'Plasmodium falciparum', 'Yes'),
  ('COC1=CC(=O)c2c(ccc3c(OC)c(O)ccc23)C1=O', 'Plasmodium falciparum', 'Yes');

Dear reviewer, please state whether COc1ccc(-c2csc(NC(=O)COc3ccccc3Cl)n2)cc1Br has EC50 strictly beneath 300 nM.
No

# repeat for COC(=O)c1sc(-c2ccccc2)cc1NC(=O)c1ccc(S(=O)(=O)N2CCCCCC2)cc1
No

---

- assay_comment: NOVARTIS: Cytotoxicity against human hepatocellular carcinoma cell line (Huh7)
- Type: toxicity, cell-based, Huh-7
- condition_info: Huh7 cells (hepatocellular carcinoma cell line)
assay_endpoint: CC50

INSERT INTO assay_data (compound, assay_endpoint, experimental_value) VALUES
  ('Cc1nc2c(C)cccc2c(O)c1CC=C(Cl)Cl', 'CC50', '> 100 µM'),
  ('O=c1c2c3c(sc2ncn1CC1CCCCC1)CC(NCc1cccnc1)CC3 (centres undefined)', 'CC50', '> 10 µM');

Lab note: each compound below needs its CC50 filled in.
1. CN(C)c1ccc(/C=C2/SC(=Nc3ccccc3)NC2=O)cc1
2. Cc1ccc(NC(=O)COc2ccc(Cl)cc2Cl)nc1
3. CCOC(=O)C1=CN(c2cc(C)ccc2C)C=C(C(=O)OCC)C1c1ccccc1OC
4. CCCOC(=O)C1=C(C)NC2=C(C(=O)CC(c3ccc(OC)c(OC)c3)C2)C1c1ccccc1C (centres undefined)

1. > 10 µM
2. > 100 µM
3. > 100 µM
4. > 100 µM

Lab note: each compound below needs its CC50 filled in.
1. O=C(Nc1ccon1)c1cc(-c2cccnc2)nc2ccc(Br)cc12
2. COc1cccc(-c2ccc(O)c(CN3CCCC(C)C3)c2)n1 (centres undefined)
3. CCOc1cccc(C2=Nc3cc(C(=O)NC(C)C)ccc3CN2CC2CCCCC2)c1
4. O=C(O)CC12CC3CC(C1)CC(c1ccc([N+](=O)[O-])cc1)(C3)C2
5. CC(C)(C)CC(C)(C)c1ccc(OCC(=O)NN=C2C(=O)Nc3ccccc32)c([N+](=O)[O-])c1

> 81 µM
> 10 µM
> 10 µM
> 10 µM
> 10 µM

Lab note: each compound below needs its CC50 filled in.
1. Cc1ccc(-c2noc(C3CCN(C(=O)Nc4ccc(C#N)cc4)CC3)n2)o1
2. Cc1ccc(S(=O)(=O)N=C2C=C(Sc3nnc[nH]3)C(=O)c3ccccc32)cc1
3. O=S(=O)(Nc1ccc(F)cc1)N1CCCCCC1
4. CCN(CC)C(=O)c1cn(C2CCN(Cc3ccco3)CC2)nn1
5. Cc1ccn2c(NC(C)(C)CC(C)(C)C)c(-c3ccccc3OC(=O)c3ccc4ccccc4c3)nc2c1
6. CCCOc1ccc(C=Nc2ccc(S(=O)(=O)Nc3ccccn3)cc2)cc1

> 100 µM
12.8 µM
> 100 µM
> 10 µM
> 10 µM
> 10 µM
